# assay_explanation: log P by HPLC
# Assay type: physicochemical
# condition_description: HPLC, gradient method, acetonitrile/0.1% aqueous phosphoric acid; EEC directive 79/831 Annex V. A8
assay_metric: logP

Below: 3 compounds and their reported logP.
{"columns": ["compound", "logP"],
 "data": [
  ["C=C(C)CN(C)c1c(-c2c(F)cccc2Cl)c(Cl)nc2nc(C3CC3)nn12 [compound 700]", 4.21],
  ["FC(F)(F)CNc1c(-c2ccc(Cl)cc2Cl)c(Cl)nc2nc(C3CC3)nn12 [compound 742]", 3.72],
  ["CCCNc1c(-c2ccc(F)cc2F)c(Cl)nc2nc(C3CC3)nn12 [compound 649]", 3.2]
]}

[1] CN(C)Nc1c(-c2ccc(F)cc2Cl)c(Cl)nc2nc(C3CC3)nn12 [compound 619]
[2] CC1CCCCN1c1c(-c2ccc(F)cc2Cl)c(Cl)nc2nc(C3CC3)nn12 (stereo not drawn) [compound 617]
In: Recorded logP values differ for 1 and 2 ; which one is higher? I would appreciate it if you answered with the label of your choice.
Out: 2
(2: 4.72, 1: 3.29)

[A] CCN(CC)c1c(-c2c(F)cc(F)cc2F)c(Cl)nc2nc(C(F)(F)F)nn12 [compound 33]
[B] CCN(CCOC)c1c(-c2ccccc2Cl)c(Cl)nc2nc(C)nn12 [compound 225]
In: Hi, I'm comparing two records. Which one has the lower logP, A or B ? Mark your selection by writing its label.
Out: B
(B: 2.94, A: 4.25)

[1] Cc1nc2nc(Cl)c(-c3c(F)cc(F)cc3F)c(NC(C)C)n2n1 [compound 26]
[2] CCC(C)Nc1c(-c2ccc(F)cc2Cl)c(Cl)nc2nc(C3CC3)nn12 (stereo not drawn) [compound 623]
In: // compare measured logP, left 1 , right 2 , return larger State the label of the item chosen.
Out: 2
(2: 3.9, 1: 2.71)

[a] CC(NNc1c(-c2ccc(F)cc2Cl)c(Cl)nc2nc(C3CC3)nn12)C1CC1 (stereo not drawn) [compound 620]
[b] Cc1nc2nc(Cl)c(-c3c(F)cccc3F)c(NOC(C)C)n2n1 [compound 144]
In: Quick one: lower logP, a or b ? Give the chosen item's label as your response.
Out: b

Entry source: patent US7186831B2
